Values were extracted from the supplement of paper PMC10567573.

assay: protein stability index of a GFP-peptide fusion (GPS, HEK-293T) (PSI 1-6); higher = more stable; conditions: treatment: MLN4924 1 uM, 8 h; c terminus: a fixed tail appended;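 note: 24-mer peptide tiles fused after GFP, lentivirally expressed, FACS-sorted into six equal bins by GFP/DsRed ratio, decoded by Illumina sequencing, PSI is the read-weighted mean bin number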
READOUT: protein stability index
Answer with the value's number alone.

Would you please look over these solved cases?
INSERT INTO assay_data (polymer_sequence, readout, reported_measurement) VALUES
  ('CDPGLTAFEPEALGNLVEGMDFHR [CAMK2D]', 'protein stability index', 4.21),
  ('QMVSAIVRTMQNTNDVETARCTAG [CTNNB1]', 'protein stability index', 2.93),
  ('AGGAGRGEDEENREHRVRRIHVRR [KCTD13]', 'protein stability index', 5.34),
  ('KGELAPELGEEPQPRDEEEAELEL [POLD4]', 'protein stability index', 5.69);

protein stability index for NGSVGVKNSMENGRPPDPADWAVM [SAMD13] is 4.06

# protein stability index of VKGCSMYVALFPCNECAKLIIQAG [DCTD] = 2.8

LKRPVNVPFDIFTEEVKFYQLGEE [KCNA4] yielded protein stability index of 3.27

Measured protein stability index, PGLLEEDNQWMTQINRLQKLIDRL [NECAB1] : 2.88

The sequence listed as GVMSAYAMCVRYDGVEVDDSYCDA [ADAMTSL2] shows protein stability index equal to 2.91

The sequence KAVNDETCKASHITSSVFPSASLG [FBXO34] showed protein stability index equal to 3.61

Memo: DTGLFSRSKSGSEEVLCDSCIGNK [TRIM29] , reported protein stability index: 4.92
